- systemName: UniProt:O75460
- Sequence (O75460 19-977): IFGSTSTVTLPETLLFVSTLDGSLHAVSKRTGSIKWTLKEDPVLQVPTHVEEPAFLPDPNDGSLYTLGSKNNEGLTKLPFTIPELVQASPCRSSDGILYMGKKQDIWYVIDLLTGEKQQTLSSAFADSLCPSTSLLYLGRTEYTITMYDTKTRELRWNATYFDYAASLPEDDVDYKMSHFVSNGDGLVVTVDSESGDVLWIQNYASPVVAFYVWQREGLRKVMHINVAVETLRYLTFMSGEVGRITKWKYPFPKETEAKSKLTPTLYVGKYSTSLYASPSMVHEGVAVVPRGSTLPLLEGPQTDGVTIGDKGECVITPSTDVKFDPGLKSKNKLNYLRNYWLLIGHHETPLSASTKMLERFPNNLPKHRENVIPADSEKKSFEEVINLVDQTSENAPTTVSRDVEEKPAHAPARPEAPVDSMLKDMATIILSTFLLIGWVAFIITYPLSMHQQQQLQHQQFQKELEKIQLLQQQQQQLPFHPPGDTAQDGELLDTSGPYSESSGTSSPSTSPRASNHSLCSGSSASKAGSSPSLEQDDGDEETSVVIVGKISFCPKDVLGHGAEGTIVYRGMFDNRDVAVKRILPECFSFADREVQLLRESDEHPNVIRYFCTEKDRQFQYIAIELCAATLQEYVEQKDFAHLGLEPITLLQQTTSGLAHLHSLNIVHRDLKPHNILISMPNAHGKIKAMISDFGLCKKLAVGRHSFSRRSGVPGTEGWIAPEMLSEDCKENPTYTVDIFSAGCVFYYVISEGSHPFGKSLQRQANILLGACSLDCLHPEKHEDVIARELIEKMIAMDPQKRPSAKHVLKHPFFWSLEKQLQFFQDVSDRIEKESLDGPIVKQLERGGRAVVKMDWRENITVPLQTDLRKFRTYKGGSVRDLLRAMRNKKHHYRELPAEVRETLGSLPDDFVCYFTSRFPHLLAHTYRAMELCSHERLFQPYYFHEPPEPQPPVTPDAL
- procedureText: In vitro FRET assay (XBP1 RNA probe cleavage)
- conditionsUsed: SignalChem IRE1a protein 2 nM, fluorescence 485/515 nm
pIC50: −log10 of the molar value.
Let's look at some compounds and their measured pIC50.

smilesCode | pIC50
CCc1cc(-c2ccc(NS(=O)(=O)c3ccccc3Cl)nc2C)nc2cnc(N[C@H]3CC[C@H](N(C)C)CC3)nc12 | ≥ 8.30
CCc1cc(-c2ccc(NS(=O)(=O)c3cnccc3Cl)nc2C)cc2cnc(N[C@H]3CC[C@H](N(C)C)CC3)nc12 | ≥ 8.30
